Source of measurements: ChEMBL document CHEMBL3992509

# assay text: Apparent permeability from apical to basolateral side in MDCK cells harboring MDR1
# Format: ADME, cell-based, Canis lupus familiaris
# conditions used: dog
measured parameter: Papp A→B

[[record]]
smiles = "CCC(C)(C)C(=O)N(O)Cc1ccccc1"
result = "> 30 ×10⁻⁶ cm/s"


---

# assay text: Efflux ratio of apparent permeability in MDCK cells harboring MDR1
# Type: ADME, cell-based, Canis lupus familiaris
# conditions used: dog
measured parameter: efflux ratio

[[record]]
smiles = "CCC(C)(C)C(=O)N(O)Cc1ccccc1"
result = 0.87


---

# assay text: Oral bioavailability in C57BL/6J mouse at 10 mg/kg by LC-MS/MS analysis
# Format: ADME, organism-based
# conditions used: in vivo
measured parameter: bioavailability

[[record]]
smiles = "CCC(C)(C)C(=O)N(O)Cc1ccccc1"
result = "22%"

